Assay Target: IRAK4 (Homo sapiens (Human), UniProt Q9NWZ3)
Sequence (Q9NWZ3 whole entry): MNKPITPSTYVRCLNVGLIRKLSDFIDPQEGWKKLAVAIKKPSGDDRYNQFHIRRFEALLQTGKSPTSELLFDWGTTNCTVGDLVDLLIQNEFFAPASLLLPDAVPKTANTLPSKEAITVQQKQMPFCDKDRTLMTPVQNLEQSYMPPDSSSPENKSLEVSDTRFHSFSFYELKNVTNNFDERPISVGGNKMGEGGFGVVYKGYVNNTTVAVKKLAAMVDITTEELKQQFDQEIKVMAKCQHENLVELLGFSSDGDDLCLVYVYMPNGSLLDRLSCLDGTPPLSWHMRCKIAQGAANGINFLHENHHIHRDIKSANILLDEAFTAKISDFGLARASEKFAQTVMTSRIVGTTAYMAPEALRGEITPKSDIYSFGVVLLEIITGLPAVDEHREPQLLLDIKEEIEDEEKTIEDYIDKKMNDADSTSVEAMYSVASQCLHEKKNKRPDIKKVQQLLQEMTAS
Procedure Summary: IRAK4 Degradation HiBiT Assay
Cond: read-out: Cellular IRAK4 HiBiT: DC50; Table 5; multiple runs; HiBiT-tagged Jurkat cells, 4 hrs
Measurement Name: DC50 (nM)

// worked examples, DC50 included
Molecule	Result Unit	DC50
CC(C)Nc1cc(-c2ccc3cc(C#N)cnn23)ncc1-c1nnc(N2CCN(C(=O)CCOCCNc3ccc4c(c3)C(=O)N(C3CCC(=O)NC3=O)C4=O)CC2)s1 (centres unmarked)	nM	49.1
Cc1ncsc1-c1ccc(CNC(=O)[C@@H]2C[C@@H](O)CN2C(=O)[C@@H](NC(=O)C2(F)CC2)C(C)(C)C)c(OCC(=O)N2CCC(CN3CCN(c4nnc(-c5cnc(-c6ccc7cc(C#N)cnn67)cc5NC(C)C)s4)CC3)CC2)c1	nM	247

I: CNc1cc(-c2ccc3cc(C#N)cnn23)ncc1-c1nnc(N2CCC(C3CCN(C(=O)c4ccc5c(c4)C(=O)N(C4CCC(=O)NC4=O)C5=O)CC3)CC2)s1 (centres unmarked)
II: CNc1cc(-c2ccc3cc(C#N)cnn23)ncc1-c1nnc(C23CCC(NC(=O)CCCCCNc4ccc5c(c4)C(=O)N(C4CCC(=O)NC4=O)C5=O)(CC2)CC3)s1 (centres unmarked)
III: CNc1cc(-c2ccc3cc(C#N)cnn23)ncc1-c1nnc(C23CCC(NC(=O)CCCCCC(=O)N[C@H](C(=O)N4C[C@H](O)C[C@H]4C(=O)N[C@@H](C)c4ccc(-c5scnc5C)cc4)C(C)(C)C)(CC2)CC3)s1
Put the molecules in ascending order of DC50. Please list each label once, in the requested order.
II, I, III
(II: 45.7 nM, I: 71.4 nM, III: 124 nM)
